# Test system: ERN1
# experimental_parameters: concentration: 1 μM, replicates: in singlicate; n = 1;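 further: KINOMEscan kinase panel screen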
measured_parameter: %Inh
Please give the number followed by its unit.

Consider Cn1c(=O)c(F)c(Nc2ccc(I)cc2F)c2c(=O)n(OC[C@H](O)CO)cnc21 . Its measured %Inh is 0%

The recorded %Inh for COC(=O)c1c(-c2ccccc2)c2cc(Br)ccc2c(=O)n1Cc1ccc(NC(=O)CCC(=O)O)cc1 is 20%

Lab note: measured %Inh of Cl.NS(=O)(=O)c1cccc(Nc2cc(-c3ccc(F)cc3)n[nH]2)c1 was 21%

// %Inh lookup, compound = CN(C)c1cc(-c2ccc3c(N)n[nH]c3c2)nc(N)n1 , result: 0%

Looking up CCC(=O)c1c(-c2ccccc2)c2cc(Cl)ccc2c(=O)n1Cc1cc(S(C)(=O)=O)n(CC(F)F)n1 , I found its %Inh recorded as 0%

Field %Inh (entry O=c1cc(N2CCOCC2)nc2n(Cc3ccc(F)c(Cl)c3)ccn12 ) reads 0%

CCC(=O)c1c(-c2ccccc2)c2cc(Cl)ccc2c(=O)n1Cc1cc(S(C)(=O)=O)n(CC(N)=O)n1 has a reported %Inh of 0%

Documented %Inh of Cc1nn2c(=O)cc(N3CCOCC3)nc2n1Cc1cccc(Cl)c1Cl : 0%

Data point: O=C(Nc1n[nH]c2nc(-c3ccccc3)c(Br)cc12)C1CC1 ; %Inh = 0%

----------
# Tested on: CDKL1
# experimental_parameters: concentration: 1 μM, replicates: in singlicate; n = 1
measured_parameter: %Inh (%)
State just the number; it will be interpreted in %.

Entry CCC(=O)c1c(-c2ccccc2)c2cc(Cl)ccc2c(=O)n1Cc1ccc(C(=O)O)cc1 , %Inh reported as 0

Form field %Inh, entry COc1ccc(CNC(=O)NC2CCN(c3ccnc(Nc4ccc(F)cc4)n3)C2)cc1 (stereo not drawn) : 10

Record summary for O=c1cc(N2CCOCC2)nc2n(Cc3ccc(F)c(Cl)c3)ccn12 : reported %Inh = 10

Consider CN1C(=O)C(Nc2ccccc2)=C(c2ccccc2)C1=O . Its measured %Inh is 4

The reported %Inh of the molecule COc1cc2ncn(-c3cc(OCc4ccncc4)c(C(N)=O)s3)c2cc1OC was 5

# %Inh of CCC(=O)c1c(-c2ccccc2)c2cc(Cl)ccc2c(=O)n1Cc1cc(S(C)(=O)=O)n(CC(F)F)n1 = 0

Reported %Inh of COC(=O)c1c(-c2ccccc2)c2cc(Br)ccc2c(=O)n1Cc1ccc(S(C)(=O)=O)cc1 : 0

Looking up COc1cccc(-n2cnc3c(N)ncnc32)c1 , I found its %Inh recorded as 13

Cl.c1ccc(Cn2cnc3cc(Nc4ncnc5ccccc45)ccc32)cc1 has a reported %Inh of 6

----------
Exercise: for every item that follows, state its recorded %Inh.
# Test system: YES
# Construct: gene YES1
# experimental_parameters: concentration: 1 μM, replicates: in singlicate; n = 1
Express your answer in %, writing the number without its unit.

Record summary for CCC(=O)c1c(-c2ccccc2)c2cc(Cl)ccc2c(=O)n1Cc1cc(S(C)(=O)=O)n(CC(F)F)n1 : reported %Inh = 0

Measured %Inh, CCCC(=O)Nc1n[nH]c2ncc(-c3cccc4ccccc34)cc12 : 9

%Inh for Nc1nc(N)c2nc(-c3ccccc3)[nH]c2n1 is 11

Quick note, %Inh for Cc1nn2c(=O)cc(N3CCOCC3)nc2n1Cc1cccc(Cl)c1Cl landed at 13

Lab note: measured %Inh of COc1cc(Nc2nccc(N3CCC(NC(=O)C(C)c4ccc(Cl)cc4)C3)n2)cc(OC)c1OC (stereo not drawn) was 5

Sample COc1cccc(-n2cnc3c(N)ncnc32)c1 ; %Inh observed: 0

Kindly note the recorded %Inh for Cc1c(Cn2c(C)nn3c(=O)cc(N4CCO[C@H](C)C4)nc23)cccc1C(F)(F)F , which is 10

Reported %Inh for CCC(=O)c1c(-c2ccccc2)c2cc(Cl)ccc2c(=O)n1Cc1cc(S(C)(=O)=O)n(CCC(C)(C)O)n1 was 0

Looking up O=C(Nc1n[nH]c2nc(-c3ccccc3)c(Cl)cc12)C1CC1 , I see its %Inh listed as 0
